Assay type: in vivo, Male Wistar Rats
settings: male, Wistar, rat, plasma, po, 800 mg/kg
reported property: AUC(0-inf) (µg·h/mL)
Record the value in µg·h/mL, omitting the unit from your answer.

Problem: Entry "C[C@@H]1O[C@@H](OC[C@H]2O[C@@H](Oc3cc(O)c4c(c3)O[C@H](c3ccc(O)cc3)CC4=O)[C@H](O)[C@@H](O)[C@@H]2O)[C@H](O)[C@H](O)[C@H]1O" has what AUC(0-inf)?
Result: 0.0202

----------
Assay type: in vivo, Male Wistar Rats
settings: male, Wistar, rat, plasma, po, 800 mg/kg
reported property: Tmax
Put down the number, then write its unit next to it.

Problem: Entry "C[C@@H]1O[C@@H](OC[C@H]2O[C@@H](Oc3cc(O)c4c(c3)O[C@H](c3ccc(O)cc3)CC4=O)[C@H](O)[C@@H](O)[C@@H]2O)[C@H](O)[C@H](O)[C@H]1O" has what Tmax?
Result: 1.01 h

----------
Type: in vivo, Male Wistar Rats
settings: male, Wistar, rat, plasma, po, 800 mg/kg
reported property: Cmax (ng/mL)
Record the value in ng/mL, omitting the unit from your answer.

Problem: Entry C[C@@H]1O[C@@H](OC[C@H]2O[C@@H](Oc3cc(O)c4c(c3)O[C@H](c3ccc(O)cc3)CC4=O)[C@H](O)[C@@H](O)[C@@H]2O)[C@H](O)[C@H](O)[C@H]1O [Narirutin] has what Cmax?
Result: 3.29

Values from paper PMC10629916
